# IC50 per entry
# assayedSystem: His-GST-TVMV-hRIPK1(1-324) (Homo sapiens (Human))
# experiment: RIPK1 HTRF Binding Assay
# protocolConditions: HTRF binding, 1 h at rt; read-out: RIPK1 (IC50)
A number alone suffices; assume nM.

Below, each entry is followed by its recorded IC50 result.
Look at this compound and give its reported IC50. "CC(=O)Nc1cn2nc(-c3ccc(C)c(C(=O)NC[C@H]4C[C@@H]4c4ccc(F)cc4)c3)ccc2n1" 105

Look at this compound and give its reported IC50. "[2H]C([2H])(NC(=O)c1cc(-c2ccc3nc(NC(=O)CO)cn3n2)c(C)nc1C)c1cc(C(F)(F)F)ccc1F" 50

Look at this compound and give its reported IC50. "CC(=O)Nc1cn2nc(-c3cnc(C)c(C(=O)NCc4c(F)cccc4OC4CCCC4)c3)ccc2n1" 4

Look at this compound and give its reported IC50. "CC(=O)Nc1cn2nc(-c3cc(C(=O)NCc4ccccc4OC(F)(F)F)cnc3C)ccc2n1" 38

Look at this compound and give its reported IC50. "[2H]C([2H])([2H])Oc1ncc(-c2ccc3nc(NC(C)=O)cn3n2)cc1C(=O)NCc1ccc(F)c(F)c1OCC1CC1" 62

Further cases:
Look at this compound and give its reported IC50. "CC(=O)Nc1cn2nc(-c3cc(C(=O)NCc4ccccc4OCC4CC4)c(C)nc3C)ccc2n1" 5

Look at this compound and give its reported IC50. COc1ncc(-c2ccc3nc(NC(C)=O)cn3n2)cc1C(=O)NCc1cccc(F)c1OC(C)C1CC1 (stereo not shown) [Example 144] 6

---

# assayedSystem: His-GST-TVMV-hRIPK1(1-324) (Homo sapiens (Human))
# experiment: RIPK1 HTRF Binding Assay
# protocolConditions: HTRF binding, 1 h at rt; read-out: RIPK1 (IC50)
# Description: A solution was prepared containing 0.2 nM Anti GST-Tb (Cisbio, 61GSTTLB), 90.6 nM probe and 1 nM His-GST-TVMV-hRIPK1(1-324) in FRET Buffer (20 mM HEPES, 10 mM MgCl2, 0.015% Brij-35, 4 mM DTT, 0.05 mg/mL BSA). […] FRET was measured using the EnVision plate reader (Excitation: 340 nm, Emission: 520 nm/[…]). Total signal (0% inhibition) was calculated from wells containing 10 nL DMSO only. […]
Structures can show the parent of a compound that is named as a salt.
# pIC50 per entry
pIC50 (log units): -log10 of the concentration in mol/L.

Look at this molecule and give its reported pIC50. "CC(=O)Nc1cn2nc(-c3cc(C(=O)NCc4ccccc4OCC4CCCC4)c(C)nc3C)ccc2n1" 8.40

Look at this molecule and give its reported pIC50. "[2H]C([2H])([2H])Oc1cc(C)c(-c2ccc3nc(NC(C)=O)cn3n2)cc1C(=O)NCc1cc(OC(F)(F)F)ccc1F" 8.40

Look at this molecule and give its reported pIC50. "[2H]C([2H])([2H])Oc1nc(C)c(-c2ccc3nc(NC(C)=O)cn3n2)cc1C(=O)NCc1cc(F)cc(F)c1O[C@H]1CCOC1" 8.52

Look at this molecule and give its reported pIC50. "Cc1ncc(-c2ccc3nc(NC(=O)CN4CCC(F)(F)CC4)cn3n2)cc1C(=O)NCC[C@@H](O)c1ccc(Cl)cc1" 8.05

Look at this molecule and give its reported pIC50. "COc1ncc(-c2ccc3nc(NC(C)=O)cn3n2)cc1C(=O)NCc1cccc(OC(F)(F)F)c1" 7.14

Look at this molecule and give its reported pIC50. Cc1nc(C)c(-c2ccc3nc(NC(=O)CO)cn3n2)cc1C(=O)NCc1cc(F)cc(F)c1O[C@H]1CCOC1 [Example 91, TFA] 7.21

API: the following record is the query input.
Look at this molecule and give its reported pIC50. COc1nc(C)c(-c2ccc3nc(NC(C)=O)cn3n2)cc1C(=O)NCc1ncccc1OCC1CCCC1 [Example 312, TFA] 8.15

---

# IC50 per entry
# assayedSystem: His-GST-TVMV-hRIPK1(1-324) (Homo sapiens (Human), UniProt Q13546)
# Sequence (Q13546 1-324): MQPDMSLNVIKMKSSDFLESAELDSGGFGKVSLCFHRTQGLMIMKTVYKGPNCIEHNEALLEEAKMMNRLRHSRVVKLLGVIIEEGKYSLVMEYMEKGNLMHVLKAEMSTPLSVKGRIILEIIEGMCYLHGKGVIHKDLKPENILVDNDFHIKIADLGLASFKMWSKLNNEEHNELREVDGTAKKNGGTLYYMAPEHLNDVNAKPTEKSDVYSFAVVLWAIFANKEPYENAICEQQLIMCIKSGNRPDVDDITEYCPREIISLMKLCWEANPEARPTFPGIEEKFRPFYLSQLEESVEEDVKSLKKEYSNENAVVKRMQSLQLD
# experiment: RIPK1 HTRF Binding Assay
# protocolConditions: HTRF binding, 1 h at rt; read-out: RIPK1 (IC50)
Counter-ions that a name gives are not always drawn.
Include the unit right after the number.

Below, each entry is followed by its recorded IC50 result.
Look at this molecule and give its reported IC50. "COc1ncc(-c2ccc3nc(NC(C)=O)cn3n2)cc1C(=O)N(C)Cc1cccc(OC(F)(F)F)c1" 8 nM

Look at this molecule and give its reported IC50. [2H]C([2H])([2H])Oc1nc(C)c(-c2ccc3nc(NC(C)=O)cn3n2)cc1C(=O)NCc1cc(F)cc(F)c1OC1CCOC(C)C1 (centres unmarked) 15 nM

Look at this molecule and give its reported IC50. "CC(=O)Nc1cn2nc(-c3cc(C(=O)NCc4cc(C(F)(F)F)ccc4F)cc(F)c3C)ccc2n1" 13 nM

Look at this molecule and give its reported IC50. "COc1ncc(-c2ccc3nc(NC(=O)CC#N)cn3n2)cc1C(=O)NCc1ccccc1OC(F)(F)F" 78 nM

Look at this molecule and give its reported IC50. COc1ncc(-c2ccc3nc(NC(=O)C(C)C)cn3n2)cc1C(=O)NCc1ccc(F)c(F)c1OCC1CC1 [Example 264, TFA] 55 nM

Look at this molecule and give its reported IC50. "CC(=O)Nc1cn2nc(-c3cc(C(=O)NCc4cccc(OC(F)(F)F)c4)c(C)nc3C)ccc2n1" 25 nM

Look at this molecule and give its reported IC50. "[2H]C([2H])([2H])Oc1ncc(-c2ccc3nc(NC(C)=O)cn3n2)cc1C(=O)NCc1cc(F)cc(F)c1OC1CCOCC1" 2 nM

Look at this molecule and give its reported IC50. "Cc1ncc(-c2ccc3nc(NC(=O)[C@H](C)O)cn3n2)cc1C(=O)N[C@H](C)c1cc(OC(F)(F)F)ccc1F" 48 nM

API: the following record is the query input.
Look at this molecule and give its reported IC50. CC(=O)Nc1cn2nc(-c3cnc(C)c(C(=O)N4CCCC(C(O)c5ccc(F)cc5)C4)c3)ccc2n1 (single isomer, unassigned) [Example 355] 223 nM

---

# assayedSystem: His-GST-TVMV-hRIPK1(1-324) (Homo sapiens (Human), UniProt Q13546)
# experiment: RIPK1 HTRF Binding Assay
# protocolConditions: HTRF binding, 1 h at rt; read-out: RIPK1 (IC50)
assayReadout: IC50 (nM)
A number alone suffices; assume nM.

Below, each entry is followed by its recorded IC50 result.
Recall the recorded IC50 for "COc1nc(C)c(-c2ccc3nc(NC(C)=O)cn3n2)cc1C(=O)NCc1cc(F)cc(F)c1OCC1CCC1" with His-GST-TVMV-hRIPK1(1-324) (Homo sapiens (Human), UniProt Q13546) and state it. 10

Recall the recorded IC50 for "Cc1ncc(-c2ccc3nc(NC(=O)CN(C)C)cn3n2)cc1C(=O)N[C@H](C)c1cc(OC(F)(F)F)ccc1F" with His-GST-TVMV-hRIPK1(1-324) (Homo sapiens (Human), UniProt Q13546) and state it. 21

Recall the recorded IC50 for "CC(=O)Nc1cn2nc(-c3cc(C(=O)NCc4cc(F)cc(F)c4OC4CCOCC4)c(C)nc3C)ccc2n1" with His-GST-TVMV-hRIPK1(1-324) (Homo sapiens (Human), UniProt Q13546) and state it. 16

Further cases:
Recall the recorded IC50 for "COc1ncc(-c2ccc3nc(NC(=O)C(C)C)cn3n2)cc1C(=O)NCc1cc(OC(F)(F)F)ccc1F" with His-GST-TVMV-hRIPK1(1-324) (Homo sapiens (Human), UniProt Q13546) and state it. 20

Recall the recorded IC50 for "[2H]C([2H])([2H])Oc1ncc(-c2ccc3nc(NC(C)=O)cn3n2)cc1C(=O)NCc1cc(OC)ccc1F" with His-GST-TVMV-hRIPK1(1-324) (Homo sapiens (Human), UniProt Q13546) and state it. 125

Recall the recorded IC50 for "CC(=O)Nc1cn2nc(-c3ccc(C)c(C(=O)NCc4cc(OC(F)(F)F)ccc4F)c3)ccc2n1" with His-GST-TVMV-hRIPK1(1-324) (Homo sapiens (Human), UniProt Q13546) and state it. 3

Recall the recorded IC50 for "CCC(=O)Nc1cn2nc(-c3cnc(OC)c(C(=O)N[C@H](C)c4cc(OC(F)(F)F)ccc4F)c3)ccc2n1" with His-GST-TVMV-hRIPK1(1-324) (Homo sapiens (Human), UniProt Q13546) and state it. 486

Recall the recorded IC50 for "Cc1nc(C)c(-c2ccc3nc(NC(=O)CO)cn3n2)cc1C(=O)NCc1cc(C(F)(F)F)ccc1F" with His-GST-TVMV-hRIPK1(1-324) (Homo sapiens (Human), UniProt Q13546) and state it. 77

Recall the recorded IC50 for "CC(=O)Nc1cn2nc(-c3cnc(C)c(C(=O)NCc4cc(OCC5CC5)ccc4F)c3)ccc2n1" with His-GST-TVMV-hRIPK1(1-324) (Homo sapiens (Human), UniProt Q13546) and state it. 8
